Measured on: T1, 4H2717-bA
T1 chain: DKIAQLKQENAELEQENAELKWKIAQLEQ
Test details: two-hybrid library CCNG1;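 note: natural log of median RNA to DNA barcode read ratio; higher means stronger binding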
Measured interaction score, listed per entry.

Reference set, count: 4
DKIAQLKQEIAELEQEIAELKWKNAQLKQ [4H2576-bA] ... -1.39
DKIAQLEQEIAELKQENAELEWKIAQLKQ [4H2134-bA] ... -0.277
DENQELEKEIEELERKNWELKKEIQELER [4H1081-bH] ... -0.543
DKIQELKKEIEELERKNWELKKENQELER [4H2619-bH] ... -0.495

Consider the record given below.
Req: Could you tell me which interaction score is on file for DKIAQLKQEIAELEQENAELKWENAQLKQ [4H2588-bA] ?
Resp: 0.0896

Taken from paper PMC10397247.
